The entries below come with measured Activity values attached.
- Test system: MCF7
- test.description: Antiestrogenic activity in human MCF7 cells assessed as drug level causing inhibition of 100 pM E2-enhanced cell proliferation to level equivalent to 1 pM E2 after 96 hrs by alamar blue assay
- Format: functional

# compound, unit.of.measurement, reading.qualifier, Activity
rows = [
    ("COc1cc(O)cc(OC)c1O[C@@H]1O[C@H](CO)[C@@H](O)[C@H](O)[C@H]1O [LEONURISIDE]", "µM", ">", 100),
    ("COc1cc([C@H]2OC[C@H]3[C@@H]2CO[C@@H]3c2ccc(O[C@@H]3O[C@H](CO)[C@@H](O)[C@H](O)[C@H]3O)c(OC)c2)ccc1O", "µM", "<", 0.1),
    ("OC[C@@H]1Oc2ccc([C@H]3OC[C@H]4[C@@H]3CO[C@@H]4c3ccc(O)c(O)c3)cc2O[C@H]1c1ccc(O)c(O)c1 [PRINCEPIN]", "µM", "=", 7),
    ("CC/C(=C(\\c1ccccc1)c1ccc(OCCN(C)C)cc1)c1ccccc1 [TAMOXIFEN]", "µM", "=", 0.4),
    ("Nc1ncnc2c1ncn2[C@@H]1O[C@H](CO)[C@@H](O)[C@H]1O [ADENOSINE]", "µM", ">", 100),
    ("OC[C@H]1O[C@@H](Oc2cc([C@H]3OC[C@]4(O)[C@@H](c5ccc6c(c5)OCO6)OC[C@]34O)ccc2O)[C@H](O)[C@@H](O)[C@@H]1O [KHAINAOSIDE A]", "µM", "<", 0.1),
    ("Oc1ccc([C@H]2OC[C@H]3[C@@H]2CO[C@@H]3c2ccc(O)c(O)c2)cc1O", "µM", "=", 94),
    ("COc1cc(/C=C/CO)ccc1O[C@@H]1O[C@H](COC(=O)/C=C/c2ccc(O)c(O)c2)[C@@H](O)[C@H](O)[C@H]1O [KHAINAOSIDE C]", "µM", "=", 5),
    ("COc1cc(O)ccc1O[C@@H]1O[C@H](CO[C@@H]2OC[C@@H](O)[C@H](O)[C@H]2O)[C@@H](O)[C@H](O)[C@H]1O [CAPPAROSIDE A]", "µM", ">", 100),
    ("COc1cc([C@H]2OC[C@H]3[C@@H]2CO[C@@H]3c2cc(OC)c(O)c(OC)c2)cc(OC)c1O [SYRINGARESINOL]", "µM", "=", 5),
    ("COc1cc(O[C@@H]2O[C@H](CO)[C@@H](O)[C@H](O)[C@H]2O)cc(OC)c1O [KOABURASIDE]", "µM", ">", 100),
    ("COc1cc(C[C@H](CO)[C@@H](CO[C@@H]2O[C@H](CO)[C@@H](O)[C@H](O)[C@H]2O)Cc2cc(OC)c(O)c(OC)c2)cc(OC)c1O", "µM", "=", 93),
    ("COc1cc([C@H](O[C@@H]2O[C@H](CO)[C@@H](O)[C@H](O)[C@H]2O)[C@@H](CO)Oc2c(OC)cc(/C=C/CO)cc2OC)ccc1O", "µM", ">", 100),
    ("OC/C=C/c1ccc2c(c1)O[C@H](c1ccc(O)c(O)c1)[C@@H](CO)O2 [ISOAMERICANOL A]", "µM", ">", 100),
]
